- assay.procedure: Particle size, PDI and zeta potential of mRNA-loaded lipid nanoparticles (Malvern Zetasizer nano)
- Type: physicochemical
- experimental.conditions: Table 1; Luciferase mRNA LNP; cationic lipid:DSPC:cholesterol:DMG-PEG2000 50:10:38.5:1.5 molar
property.label: PDI
# output: bare number, no unit

{"columns": ["molecule", "PDI"],
 "data": [
  ["CCCCC/C=C\\C/C=C\\CCCCCCCCC(CCCCCCCC/C=C\\C/C=C\\CCCCC)OC(=O)CCCN(C)C [DLin-MC3-DMA, reference compound]", 0.19],
  ["CCCCCCCCOCC(C)C(=O)OCCCCCN(CCCCCCCC(=O)OC(CCCCCCCC)CCCCCCCC)CCN(CC)CC (stereo not shown) [Compound 28]", 0.04],
  ["CCCCCCCCSCCOC(=O)CCCCCCCN(CCCCCCCC(=O)OC(CCCCCCCC)CCCCCCCC)CCN(C)C [Compound 55]", 0.13]
]}

Proceeding to the next molecule to report its PDI.
Query: Looking for the measured PDI of CCCCCCCCCCSCC(C)C(=O)OCCCCCN(CCO)CCCCCCCC(=O)OC(CCCCCCCC)CCCCCCCC (stereo not shown) [Compound 30] , can you help?
Reply: 0.11

###

- assay.procedure: Encapsulation rate of mRNA-loaded lipid nanoparticles (Ribogreen kit)
- Format: physicochemical
- experimental.conditions: Table 4 batch; EPO mRNA LNP prepared as Example 20
Consider the following compounds and their measured Encapsulation rate (%) readings.
The reply should contain only the number, in %.

Solved entries (count: 8):
{"columns": ["compound", "Encapsulation rate (%)"],
 "data": [
  ["CCCCCCCCC(CCCCCCCC)C(=O)OCCCCCCCN(CCO)CCCCCCCOC(=O)C(C)CSCCCCCC (stereo not drawn)", 93.9],
  ["CCCCC/C=C\\C/C=C\\CCCCCCCCC(CCCCCCCC/C=C\\C/C=C\\CCCCC)OC(=O)CCCN(C)C [DLin-MC3-DMA, reference compound]", 90.1],
  ["CCCCCCCCOCC(C)C(=O)OCCCCCN(CCO)CCCCCCCC(=O)OC(CCCCCCCC)CCCCCCCC (stereo not drawn)", 97.8],
  ["CCCCCCCCC(CCCCCCCC)C(=O)OCCCCCCCN(CCO)CCCCCCCOC(=O)C(C)COCCCCCC (stereo not drawn)", 96.9],
  ["CCCCCCCCSCC(C)C(=O)OCCCCCN(CCO)CCCCCCCOC(=O)C(CCCCCCCC)CCCCCCCC (stereo not drawn)", 95.5],
  ["CCCCCCCCC(CCCCCCCC)OC(=O)CCCCCCCN(CCO)CCCCCCCOC(=O)C(C)CSCCCCCC (stereo not drawn)", 95.0],
  ["CCCCCCCCC(CCCCCCCC)OC(=O)CCCCCCCN(CCO)CCCCCCCOC(=O)C(C)COCCCCCC (stereo not drawn)", 96.5],
  ["CCCCCCCCSCC(C)C(=O)OCCCCCN(CCO)CCCCCCCC(=O)OC(CCCCCCCC)CCCCCCCC (stereo not drawn)", 96.1]
]}

Shift focus to the following entry.
Query: Endpoint output: Encapsulation rate (%) of CCCCCCCCOCC(C)C(=O)OCCCCCN(CCO)CCCCCCCOC(=O)C(CCCCCCCC)CCCCCCCC (stereo not drawn) . Value?
Reply: 96.5

###

- assay.procedure: Particle size, PDI and zeta potential of mRNA-loaded lipid nanoparticles (Malvern Zetasizer nano)
- Assay type: physicochemical
- experimental.conditions: Table 3 batch; luciferase mRNA LNP prepared as Example 20
property.label: PDI
Form field (numeric): enter value without unit.

Query: Field request: PDI | item: CCCCC/C=C\C/C=C\CCCCCCCCC(CCCCCCCC/C=C\C/C=C\CCCCC)OC(=O)CCCN(C)C [DLin-MC3-DMA, reference compound]
Reply: 0.16

###

- assay.procedure: Particle size, PDI and zeta potential of mRNA-loaded lipid nanoparticles (Malvern Zetasizer nano)
- Format: physicochemical
- experimental.conditions: Table 1; Luciferase mRNA LNP; cationic lipid:DSPC:cholesterol:DMG-PEG2000 50:10:38.5:1.5 molar
Zeta potential (mV) reference
# number only, unit mV dropped from output

The cases that follow already have their Zeta potential (mV) on record.
{"columns": ["compound", "measure.unit", "Zeta potential (mV)"],
 "data": [
  ["CCCCCCCCOCC(C)C(=O)OCCCCCN(CCCCCCCC(=O)OC(CCCCCCCC)CCCCCCCC)CCN(CC)CC (stereo not shown) [Compound 28]", "mV", 5.29],
  ["CCCCCCCCSCC(CC)C(=O)OCCCCCN(CCO)CCCCCCCC(=O)OC(CCCCCCCC)CCCCCCCC (stereo not shown) [Compound 36]", "mV", 0.55],
  ["CCCCCCCCC(CCCCCCCC)OC(=O)CCCCCCCN(CCO)CCCCCCC(=O)OCCOCCCCCCC [Compound 14]", "mV", "−3.27"]
]}

Let's switch to this compound now.
Query: Given the entry CCCCCCCCSCC(C)C(=O)OCCCCCN(CCO)CCCCCCCC(=O)OC(CCCCCCCC)CCCCCCCC (stereo not shown) [Compound 35] , report its measured Zeta potential (mV).
Reply: −2.10

###

- assay.procedure: Encapsulation rate of mRNA-loaded lipid nanoparticles (Ribogreen kit)
- Assay type: physicochemical
- experimental.conditions: Table 1; Luciferase mRNA LNP; cationic lipid:DSPC:cholesterol:DMG-PEG2000 50:10:38.5:1.5 molar
property.label: Encapsulation rate (%)
Numbers only here, please. The scale is %.

{"columns": ["molecule", "measure.unit", "Encapsulation rate (%)"],
 "data": [
  ["CCCCCCCCC(CCCCCCCC)OC(=O)CCCCCCCN(CCO)CCCCCCC(=O)OCCOCCCCCCC", "%", 95.7]
]}

Query: Recorded Encapsulation rate (%) of CCCCCCCCOCC(C)C(=O)OCCCCCN(CCCCCCCC(=O)OC(CCCCCCCC)CCCCCCCC)CCN(CC)CC (centres unmarked) , please.
Reply: 95.9

Query: I'd like to know its Encapsulation rate (%). The molecule in question is CCCCCCCCCCOCC(CCC)C(=O)OCCCCCN(CCO)CCCCCCCC(=O)OC(CCCCCCCC)CCCCCCCC (centres unmarked)
Reply: 83.7

Query: Any idea what its Encapsulation rate (%) is? The molecule is `CCCCCCCCCCSCCC(=O)OCCCCCN(CCO)CCCCCCCC(=O)OC(CCCCCCCC)CCCCCCCC`
Reply: 95.6

Query: Please give the measured Encapsulation rate (%) for this molecule: `CCCCCCCCSCCOC(=O)CCCCCCCN(CCCCCCCC(=O)OC(CCCCCCCC)CCCCCCCC)CCN(C)C`
Reply: 91.1

###

- assay.procedure: Encapsulation rate of mRNA-loaded lipid nanoparticles (Ribogreen kit)
- Type: physicochemical
- experimental.conditions: Table 1; Luciferase mRNA LNP; cationic lipid:DSPC:cholesterol:DMG-PEG2000 50:10:38.5:1.5 molar
Here, each record is paired with measured Encapsulation rate (%) data.
Answer with a number only, understood to be in %.

{"columns": ["compound", "Encapsulation rate (%)"],
 "data": [
  ["CCCCCCCCCCOCC(C)C(=O)OCCCCCN(CCO)CCCCCCCC(=O)OC(CCCCCCCC)CCCCCCCC (stereo not shown)", 87.8],
  ["CCCCCCCCCCOCC(CC)C(=O)OCCCCCN(CCO)CCCCCCCC(=O)OC(CCCCCCCC)CCCCCCCC (stereo not shown)", 87.5],
  ["CCCCCCCCSCC(C)C(=O)OCCCCCN(CCCO)CCCCCCCC(=O)OC(CCCCCCCC)CCCCCCCC (stereo not shown)", 92.5],
  ["CCCCC/C=C\\C/C=C\\CCCCCCCCC(CCCCCCCC/C=C\\C/C=C\\CCCCC)OC(=O)CCCN(C)C [DLin-MC3-DMA, reference compound]", 87.6],
  ["CCCCCCCCCCSCCC(=O)OCCCCCN(CCCCCCCC(=O)OC(CCCCCCCC)CCCCCCCC)CCN(C)C", 94.1],
  ["CCCCCCCCSCC(CC)C(=O)OCCCCCN(CCO)CCCCCCCC(=O)OC(CCCCCCCC)CCCCCCCC (stereo not shown)", 93.9]
]}

Please examine the following record next.
Query: What measured Encapsulation rate (%) goes with `CCCCCCCCCCSCCOC(=O)CCCCCCCN(CCO)CCCCCCCC(=O)OC(CCCCCCCC)CCCCCCCC` ?
Reply: 94.9

###

Overview of reported Particle size (nm) across a group of compounds:
- assay.procedure: Particle size, PDI and zeta potential of mRNA-loaded lipid nanoparticles (Malvern Zetasizer nano)
- Assay type: physicochemical
- experimental.conditions: Table 4 batch; EPO mRNA LNP prepared as Example 20
Express your answer in nm, writing the number without its unit.

Worked set:
{"columns": ["compound", "property.label", "measure.unit", "recorded.result"],
 "data": [
  ["CCCCCCCCSCC(C)C(=O)OCCCCCN(CCO)CCCCCCCOC(=O)C(CCCCCCCC)CCCCCCCC (stereo not drawn)", "Particle size (nm)", "nm", 82.5],
  ["CCCCC/C=C\\C/C=C\\CCCCCCCCC(CCCCCCCC/C=C\\C/C=C\\CCCCC)OC(=O)CCCN(C)C [DLin-MC3-DMA, reference compound]", "Particle size (nm)", "nm", 97.6],
  ["CCCCCCCCC(CCCCCCCC)OC(=O)CCCCCCCN(CCO)CCCCCCCOC(=O)C(C)CSCCCCCC (stereo not drawn)", "Particle size (nm)", "nm", 75.3],
  ["CCCCCCCCC(CCCCCCCC)C(=O)OCCCCCCCN(CCO)CCCCCCCOC(=O)C(C)CSCCCCCC (stereo not drawn)", "Particle size (nm)", "nm", 81.0],
  ["CCCCCCCCC(CCCCCCCC)C(=O)OCCCCCCCN(CCO)CCCCCCCOC(=O)C(C)COCCCCCC (stereo not drawn)", "Particle size (nm)", "nm", 74.0],
  ["CCCCCCCCOCC(C)C(=O)OCCCCCN(CCO)CCCCCCCC(=O)OC(CCCCCCCC)CCCCCCCC (stereo not drawn)", "Particle size (nm)", "nm", 88.8],
  ["CCCCCCCCSCC(C)C(=O)OCCCCCN(CCO)CCCCCCCC(=O)OC(CCCCCCCC)CCCCCCCC (stereo not drawn)", "Particle size (nm)", "nm", 79.1],
  ["CCCCCCCCOCC(C)C(=O)OCCCCCN(CCO)CCCCCCCOC(=O)C(CCCCCCCC)CCCCCCCC (stereo not drawn)", "Particle size (nm)", "nm", 75.4]
]}

Shifting focus to the compound that follows.
Query: Data request, read-out Particle size (nm), for CCCCCCCCC(CCCCCCCC)OC(=O)CCCCCCCN(CCO)CCCCCCCOC(=O)C(C)COCCCCCC (stereo not drawn)
Reply: 81.7
